From: the nanobody polyreactivity screen of Harvey et al. (2022)

# Protocol summary: yeast display, Sf9 membrane polyspecificity reagent, FACS + sequencing; frameworks hold sequencing errors
Value type: polyreactivity (PSR sort gate)

QVQLVESGGGLVQAGGSLRLSCAASGSIFYFYAMGGYRQAPGKERELVAAIRSSDGITYYADSVKGRFTISRDNAKNTVYLQMNSLKPEDTAVYYCAALVRDFYNWDTLYYWGQGTQVTVSS | low polyreactivity
QVQLVESWGGLVQAGGTLRLSCAASGSTFTLNCMGWYRQAPGKERELVASITWSGGSTYYADSVKGRFTISRDNAKNTVYLQMNSLKPEDTAVYYCADDEKLYITGYDYWGQGTQVTVSS | low polyreactivity

###

# Protocol summary: yeast display, Sf9 membrane polyspecificity reagent, FACS + sequencing; frameworks hold sequencing errors
Value type: polyreactivity (PSR sort gate)

Consider the reported polyreactivity (PSR sort gate) for these sequences:
QVQLVESGGGLVQAGGSLRLSCAASGITFAYYVMGWYRQAPGKERELVAAINGSGGSTYYADSVKGRFTISRDTAKNTVYLQMNSLKPEDTAVYYCAAEQYVYRRYPEPDWYAYNYWGQGTQVTVSS | high polyreactivity
QVQLVESGGGLVQAGGILRLSCAAAGFIFYRYAMGWYREAPGKEREFVAAISRSGGSTYYADSVKGRFTISRDNAKNTVYLQMNSLKPEDTAVYYCAAGRVTISYFQDRLTTYDYWGQGTQVTVSS | high polyreactivity
QVQLVESGGGLDQAGGSLRLSCAASGSIFGSYAMGWNTPAPGKERELVAAISVSGGSTYYADSVKGRFTISRYNAKNTVYLQMNSLKPEDTAVYYCAADWQELEYDYWGQGTQVTVSS | low polyreactivity
QVQLVESGGGLVQAGGSLRLSCAASGRTFVYNAMGWYRQAPGKEREFVAAISDGGGDTYYADSVKGRFTISRDNAKNTVYLQMNSLKPEDTAVYYCNVEWQQPGYAFDYWGQGTQVTVSS | low polyreactivity
QVQLVESGGGLVQAGGSLRLSCAASGNAMGWYRQAPGKERELVASINRSGGRTYFADSVKGRFTISRDNAKNTVYLQMNRLIPEDTAVYYCAKGPRGADLTHGAYVEMEYWGQGTQVTVSS | low polyreactivity

Supply recorded polyreactivity (PSR sort gate) for QVQLVESGGGLVQAGGSLRISCAASGSIFATYAMGWYRQAPGKERELVAAISWSSGSTYYADSVKGRFTISRDNAKNTVYLQMNSLNPEDTAVYYCNKDWLAYDSLRVTSTIAFDYWGQGSQVTVSS here. low polyreactivity

Please report polyreactivity (PSR sort gate) for the following sequence: QVQLVESGGGLVQAGGSLRLSCAASGRSFCYNAMGWYSQAPGKERELVAGISSSGGTTYYADSVKGRFTISRDKAKNTVYLQMNSLKPEDTAVYYCAKRFSLLSTVRWGRYNYWGQGTQVTVSS high polyreactivity

Retrieve polyreactivity (PSR sort gate) measured for QVQLVESGGGLVQAGGSLRLSCAASGSIFWTNAMGWYRQAPGKERELVAAIRVSTGSTYYADSVKGRFTISRDNAKNTVYLQMNSLKPEDTAVYYCAARTYGWGYDYWGQGTQVTVSS and print it. low polyreactivity

Answer with the recorded polyreactivity (PSR sort gate) for the sequence listed here: QVQLVESGGGLVQAGGSLRLSCAASGRIFDLYTMGWYRQAPGKERELVAAISSSGGSTYYADSVKGRFTISRDNARNTVYLQMNSLKPEDTAVYYCNADWYYAGYGYWGQGTQVTVSS low polyreactivity

Answer with the recorded polyreactivity (PSR sort gate) of QVQLVESGGGLVQAGGSLRLICAASGSIFGYNAMVWYRQAPGKERELVAVINASGASTYYADSVKGRFTISRDNAKNTVYLHMNSLKPEDTAVYSCAKDPFPFPGGDYWGQGTQVTVSS only. low polyreactivity

Complete the entry with polyreactivity (PSR sort gate) for QVQLVESGGGLVQAGGSLRLSCAASGSTLGVYVMGWYRPAPGKERELVAAISRNGGSTYYADSVKGRFTISRDNAMNTVYLQMNSLKPEDTAVYYCAARTVGRKAGFDYWGQGTQVTVSS high polyreactivity
